inhibition values, listed per item
- MEASURED_ON: Solute carrier family 2, facilitated glucose transporter member 1 (Homo sapiens) (UniProt P11166)
- Sequence (P11166 whole entry): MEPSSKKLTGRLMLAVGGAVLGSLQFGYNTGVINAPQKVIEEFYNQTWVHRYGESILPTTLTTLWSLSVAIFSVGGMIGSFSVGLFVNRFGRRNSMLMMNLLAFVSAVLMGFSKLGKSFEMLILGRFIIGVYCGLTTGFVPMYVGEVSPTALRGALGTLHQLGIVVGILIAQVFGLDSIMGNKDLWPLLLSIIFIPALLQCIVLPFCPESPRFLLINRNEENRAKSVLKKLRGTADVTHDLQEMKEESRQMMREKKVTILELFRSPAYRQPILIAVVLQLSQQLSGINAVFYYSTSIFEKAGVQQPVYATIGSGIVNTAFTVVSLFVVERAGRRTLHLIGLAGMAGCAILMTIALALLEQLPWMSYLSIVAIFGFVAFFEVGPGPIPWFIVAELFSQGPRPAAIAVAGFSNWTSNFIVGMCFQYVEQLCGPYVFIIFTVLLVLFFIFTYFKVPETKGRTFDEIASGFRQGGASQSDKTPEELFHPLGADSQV
- ASSAY_NAME: ST_JUDE_LEISH: Cytotoxicity at 2uM final concentration against transgenic Leishmania Mexicana promastigotes LmGLUT1 that are glucose transport deficient and complemented with the human glucose transporter GLUT1. Activity is measured by DNA content using SYBR green in vitro
- Assay type: functional
MEASUREMENT_LABEL: inhibition (%)

{"COMPOUND": "CS(=O)(=O)c1ccc2nc(NC(=O)c3csnn3)sc2c1", "QUANTITY_UNIT": "%", "MEASURED_VALUE": 3.22}
{"COMPOUND": "CN1CCN(c2ccc(-c3cc(-c4cc(F)c(F)c(F)c4)cnc3N)cc2)CC1", "QUANTITY_UNIT": "%", "MEASURED_VALUE": 4.36}
{"COMPOUND": "Clc1ncnc2ncn(Cc3cccc(Br)c3)c12", "QUANTITY_UNIT": "%", "MEASURED_VALUE": 15.3}
{"COMPOUND": "CN(c1ccccc1)c1ccnc(NC(=N)Nc2ccc(Cl)cc2)n1", "QUANTITY_UNIT": "%", "MEASURED_VALUE": 5.16}
{"COMPOUND": "C=C1C(C(=O)OCC)=CN(CC)c2cc(O[C@H]3CCN(C(=O)OC(C)(C)C)C3)ccc21", "QUANTITY_UNIT": "%", "MEASURED_VALUE": 2.71}
{"COMPOUND": "COc1ccccc1N1CCN(c2cccc(F)c2C#N)CC1", "QUANTITY_UNIT": "%", "MEASURED_VALUE": 8.24}
{"COMPOUND": "CCC(=O)N1CCc2cc(Br)cc(S(=O)(=O)N3CC(C)CC(C)C3)c21 (stereo unspecified)", "QUANTITY_UNIT": "%", "MEASURED_VALUE": 5.05}
{"COMPOUND": "Cc1cc(N2CCCN(C)CC2)nc(Nc2ccc(Cl)cc2)n1", "QUANTITY_UNIT": "%", "MEASURED_VALUE": 1.53}
{"COMPOUND": "COc1ccc(Oc2ccc(-c3c(O)cc(C)nc3C)cc2)cc1", "QUANTITY_UNIT": "%", "MEASURED_VALUE": 2.96}
{"COMPOUND": "O=C(Nc1cccnc1)c1cc(-c2cc(Cl)ccc2O)n[nH]1", "QUANTITY_UNIT": "%", "MEASURED_VALUE": 2.55}
{"COMPOUND": "Nn1c(=O)oc2ccc(Cl)cc2c1=O", "QUANTITY_UNIT": "%", "MEASURED_VALUE": 4.15}
{"COMPOUND": "COc1ccccc1N(C)CCNc1cc(C)nc(Nc2ccc(C)cc2)n1", "QUANTITY_UNIT": "%", "MEASURED_VALUE": 8.84}
{"COMPOUND": "O=C(N[C@@H](Cc1ccccc1)C(=O)NC1CCCc2ccccc21)c1ccc(O)c(-c2ccc(Cl)c(Cl)c2)c1 (stereo partly specified)", "QUANTITY_UNIT": "%", "MEASURED_VALUE": 0.59}
{"COMPOUND": "CCC1N=C(N)N=C(N)N1OCc1ccc(Cl)c(Cl)c1 (stereo unspecified)", "QUANTITY_UNIT": "%", "MEASURED_VALUE": -0.58}
{"COMPOUND": "CC1(C)N=C(N)N=C(N)N1c1ccc(Cl)c(Cl)c1", "QUANTITY_UNIT": "%", "MEASURED_VALUE": -1.25}
{"COMPOUND": "NC1=Nc2ccc(Cl)cc2C1(O)c1ccccc1 (stereo unspecified)", "QUANTITY_UNIT": "%", "MEASURED_VALUE": 1.25}
{"COMPOUND": "O=C(NC1CCCCC1)C(c1cccs1)N(CCc1ccccc1)C(=O)c1ccco1 (stereo unspecified)", "QUANTITY_UNIT": "%", "MEASURED_VALUE": 1.57}
{"COMPOUND": "c1ccc(Oc2ccc(Nc3ccnc4cc(-c5ccc(CN6CCNCC6)o5)ccc34)cc2)nc1", "QUANTITY_UNIT": "%", "MEASURED_VALUE": 11.2}
{"COMPOUND": "CC(C)(C)N1CCC(N(Cc2ccc(-c3ccc(C(F)(F)F)cc3)cc2)C(=O)Cn2c(CCc3cccc(F)c3F)cc(=O)c3cccnc32)CC1", "QUANTITY_UNIT": "%", "MEASURED_VALUE": -0.12}
{"COMPOUND": "CCOc1cc(/C=N/Nc2nc3ccccc3[nH]2)ccc1OCc1ccc([N+](=O)[O-])cc1", "QUANTITY_UNIT": "%", "MEASURED_VALUE": 5.62}
{"COMPOUND": "Cc1noc(C)c1-c1cccc(CNCc2cccc(-c3ccc(-c4nc5cc(C(F)(F)F)ccc5[nH]4)s3)c2)c1", "QUANTITY_UNIT": "%", "MEASURED_VALUE": 0.65}
